system: U373 (Brain Tumor); test: MTT cytotoxicity assay, U373 cells, 48 hours; type: cell-based; conditions: 48 hours incubation, read-out: IC50 [MTT Assays] U373 (Brain Tumor)
pIC50: −log10 of the molar value.
Observable: pIC50

Name the reported pIC50 value associated with the compound N.N.[Cl][Pt][Cl] [Cisplatin, reference compound] < 3.60
